- Assayed target: α4β1δ GABAA receptor (Homo sapiens, UniProt P18505+P48169)
- Sequence (P48169 36-554): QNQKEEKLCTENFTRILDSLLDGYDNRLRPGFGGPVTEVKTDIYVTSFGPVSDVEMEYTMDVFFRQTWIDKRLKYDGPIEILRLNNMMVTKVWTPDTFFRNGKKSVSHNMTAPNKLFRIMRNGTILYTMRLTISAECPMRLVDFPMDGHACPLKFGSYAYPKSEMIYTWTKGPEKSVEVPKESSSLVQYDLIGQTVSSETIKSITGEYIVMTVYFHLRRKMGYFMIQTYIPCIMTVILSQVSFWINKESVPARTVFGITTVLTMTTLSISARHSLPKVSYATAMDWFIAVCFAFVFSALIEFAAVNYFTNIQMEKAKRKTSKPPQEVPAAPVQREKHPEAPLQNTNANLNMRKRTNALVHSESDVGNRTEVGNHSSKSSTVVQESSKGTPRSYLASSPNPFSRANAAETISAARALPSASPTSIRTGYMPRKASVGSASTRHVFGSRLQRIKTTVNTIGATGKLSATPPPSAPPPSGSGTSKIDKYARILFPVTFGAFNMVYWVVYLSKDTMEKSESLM
- Sequence (P18505 26-474): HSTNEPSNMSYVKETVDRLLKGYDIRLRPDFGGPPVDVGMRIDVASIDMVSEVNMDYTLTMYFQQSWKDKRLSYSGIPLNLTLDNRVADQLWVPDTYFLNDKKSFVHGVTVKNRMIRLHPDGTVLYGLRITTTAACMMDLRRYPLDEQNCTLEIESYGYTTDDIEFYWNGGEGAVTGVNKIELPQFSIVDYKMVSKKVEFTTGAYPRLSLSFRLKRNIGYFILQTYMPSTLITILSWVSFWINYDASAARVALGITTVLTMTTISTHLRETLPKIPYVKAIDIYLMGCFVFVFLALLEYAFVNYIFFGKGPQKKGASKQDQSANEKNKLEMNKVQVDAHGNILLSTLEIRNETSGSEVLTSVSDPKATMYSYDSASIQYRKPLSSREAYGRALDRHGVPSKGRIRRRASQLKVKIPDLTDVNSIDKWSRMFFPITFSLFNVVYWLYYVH
- Sequence (O14764 25-452 partner): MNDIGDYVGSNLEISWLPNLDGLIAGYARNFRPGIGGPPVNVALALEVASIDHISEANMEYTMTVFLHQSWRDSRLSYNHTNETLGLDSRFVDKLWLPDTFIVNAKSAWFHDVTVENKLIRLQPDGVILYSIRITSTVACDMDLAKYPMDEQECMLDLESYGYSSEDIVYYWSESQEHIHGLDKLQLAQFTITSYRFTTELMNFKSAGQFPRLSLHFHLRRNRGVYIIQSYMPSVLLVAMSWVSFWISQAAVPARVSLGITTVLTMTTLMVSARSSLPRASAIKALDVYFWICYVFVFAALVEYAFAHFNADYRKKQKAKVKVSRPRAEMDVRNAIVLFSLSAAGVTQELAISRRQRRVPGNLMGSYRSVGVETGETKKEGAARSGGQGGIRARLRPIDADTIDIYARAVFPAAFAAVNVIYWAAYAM
- Measurement description: cell-based
- Design: species or system HEK293 Flp-In
pEC50: −log10 of the molar value.
Experimental endpoint: pEC50

{"columns": ["Compound", "Experimental endpoint", "Measurement"],
 "data": [
  ["CCOC(=O)Nc1ccc(NCc2c(C)cc(C)cc2C)cc1N", "pEC50", 6.26]
]}

* * *

- Assayed target: α4β1δ GABAA receptor (Homo sapiens, UniProt P18505+P48169, P48169:S303L)
- Sequence (P48169 36-554 S303L): as the sequence (P48169 36-554) above, with S268L counted along it
- Sequence (P18505 26-474): as the sequence (P18505 26-474) above
- Sequence (O14764 25-452 partner): as the sequence (O14764 25-452 partner) above
- Measurement description: cell-based
- Parameters: species or system HEK293 Flp-In
Experimental endpoint: EC50

{"columns": ["Compound", "Measurement"],
 "data": [
  ["CCOC(=O)Nc1ccc(NCc2c(C)cc(C)cc2C)cc1N", "250 nM"]
]}

* * *

- Assayed target: α4β1δ GABAA receptor (Homo sapiens, UniProt P18505+P48169, P48169:S303L)
- Measurement description: FLIPR membrane potential
- Format: cell-based
pEC50: −log10 of the molar value.

{"columns": ["Compound", "pEC50"],
 "data": [
  ["CCOC(=O)c1cncn1[C@H](C)c1ccccc1 [etomidate]", 5.21]
]}
